TEST SYSTEM: T1, murine IL-11 (mouse, UniProt P47873 22-199)
T1 sequence: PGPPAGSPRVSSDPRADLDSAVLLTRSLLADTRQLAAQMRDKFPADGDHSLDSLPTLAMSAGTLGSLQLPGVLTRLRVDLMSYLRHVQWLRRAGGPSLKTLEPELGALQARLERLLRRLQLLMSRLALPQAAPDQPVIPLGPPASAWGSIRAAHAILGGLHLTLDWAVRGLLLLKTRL
METHOD: cell-based or functional assay
ASSAY READOUT: IC50, RGA 1 (nM)
// note: answer is a bare numeric in nM

Q: I would be grateful if you could share the reported IC50, RGA 1 for TPP-31294 (antibody, IgG4, V domains shown, hIgG4 SPLE, lambda) VH: EVQLLESGGGLVQPGGSLRLSCAASGFTFSHYDMNWLRQAPGKGLEWVAVISYDGSNKFYADFVKGRFTISRDNSKNTLYLQMNSLRAEDTAVYYCARTPGSHFDYWGQGTLVTVSS VL: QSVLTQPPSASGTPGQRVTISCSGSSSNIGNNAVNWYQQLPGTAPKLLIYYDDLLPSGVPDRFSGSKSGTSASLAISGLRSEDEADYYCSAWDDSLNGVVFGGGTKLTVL .
A: 41

Q: TPP-31299 (antibody, IgG4, V domains shown) VH: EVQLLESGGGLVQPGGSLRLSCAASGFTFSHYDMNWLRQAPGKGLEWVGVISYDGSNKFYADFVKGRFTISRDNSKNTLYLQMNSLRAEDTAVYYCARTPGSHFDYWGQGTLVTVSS VL: QSVLTQPPSASGTPGQRVTISCSGSSSNIGNNAVNWYQQLPGTAPKLLIYYDDLLPSGVPDRFSGSKSGTSASLAISGLRSEDEADYYCSAWDDSLNAVVFGGGTKLTVL ?
A: 44
